Where do these numbers come from? They come from ChEMBL document CHEMBL3044936.

- System: Reticulitermes flavipes
- ASSAY_EXPLANATION: Antifeedant activity against Reticulitermes flavipes assessed as feeding inhibition at 2.7 ug/disk after 3 days by choice paper disk assay
- Assay type: functional
- CONDITION_SET: 72 h
Items are presented alongside their recorded inhibition at 2.7 µg/disc.
VALUE_TYPE: inhibition at 2.7 µg/disc (%)

LINE_NOTATION	READOUT_NUMBER
CC(C)(O)[C@@H]1CC[C@](C)([C@H]2[C@@H](O)C[C@@]3(C)C4=C(CC[C@]23C)[C@@]2(C)CCC(=O)C(C)(C)[C@@H]2CC4)O1	30.8
COC1=C[C@]2(C)CCC(C(C)C)=CC2=C(C)C1=O	70.5
COc1ccc(C(=O)O[C@H]2C/C(C)=C/CC/C(C)=C/[C@H]3[C@@H]2C3(C)C)cc1	31.9
CC(=O)O[C@H]1C(=O)O[C@@H]2C[C@H]3C(C)=CC(=O)[C@@H](O)[C@]3(C)[C@H]3[C@]4(O)OC[C@]32[C@@H]1[C@@H](C)[C@H]4O	39.4
C/C1=C\[C@H]2[C@@H]([C@@H](O)C/C(C)=C/CC1)C2(C)C	46
